These entries and their values trace back to patent US9018208B2.

assay_overview: Metabolic stability in rats after oral administration (mass spectrometry)
Assay type: in vivo, rat
setup_conditions: result in words

| smiles_repr | metabolism in rats |
| --- | --- |
| CC(C)(CC(=O)Nc1nc2ccc(C(F)(F)F)cn2c1C1CCC1)C(F)(F)F | little or no metabolism |
| CC(C)(CC(=O)Nc1nc2ccc(F)cn2c1-c1cc(C(F)(F)F)ccn1)C(F)(F)F | little or no metabolism |

---

Would you kindly list EC50 for each of these compounds?
Tested on: SH-SY5Y M-currents (KCNQ2, KCNQ3 and KCNQ5)
assay_overview: SH-SY5Y native cell line FLIPR assay (voltage-sensitive dye DiBAC)
Type: cell-based, mouse neuroblastoma, rat glioma hybrid cell line
setup_conditions: FLIPR assay, SH-SY5Y native cell line; Table 2; read-out: SH-SY5Y EC50

The following compounds have reported results that may help.
| compound | reported_result |
| --- | --- |
| O=C(Cc1ccc(F)cc1)Nc1nc2ncc(Cl)cn2c1-c1ccc(C(F)(F)F)cc1 | 500 to 3000 nM |
| O=C(Cc1ccc(F)cc1)Nc1nc2ccc(Cl)cn2c1-c1ccc(F)cc1 | < 500 nM |
| O=C(CC1CCCC1)Nc1nc2ccc(F)cn2c1-c1ccc(F)cc1 | < 500 nM |
| CC(C)(C)CC(=O)Nc1nc2cc(C(F)(F)F)ccn2c1-c1ccc(F)cc1 | 500 to 3000 nM |
| Cc1ccn2c(-c3ccc(F)cc3)c(NC(=O)CC(C)(C)C)nc2c1 | < 500 nM |

Items follow; give EC50 for each.
1. O=C(CC1CCCC1)Nc1nc2ccc(F)cn2c1-c1ccc(OC(F)(F)F)c(F)c1
2. CC(C)(C)CC(=O)Nc1nc2ccc(F)cn2c1-c1cccc(C(C)(C)C#N)c1
3. O=C(CC1CCC1)Nc1nc2ccc(F)cn2c1-c1cccc(C(F)(F)F)c1
4. O=C(CC1CCCC1)Nc1nc2ccc(F)cn2c1-c1cccc(OC(F)(F)F)c1

< 500 nM
500 to 3000 nM
< 500 nM
< 500 nM

---

System: SH-SY5Y M-currents (KCNQ2, KCNQ3 and KCNQ5)
assay_overview: SH-SY5Y native cell line FLIPR assay (voltage-sensitive dye DiBAC)
Assay type: cell-based, mouse neuroblastoma, rat glioma hybrid cell line
setup_conditions: FLIPR assay, SH-SY5Y native cell line; Table 2; read-out: SH-SY5Y EC50
pEC50: −log10 of the molar value.
Assignment: determine reported pEC50 for the given molecules.

Need pEC50 for each of these molecules.
1. CC(CC(=O)Nc1nc2ccccn2c1-c1cccc(C(F)(F)F)c1)C(F)(F)F (stereo not shown)
2. O=C(Cc1ccc(F)cc1)Nc1nc2ncccn2c1-c1cccc(Cl)c1
3. Cc1ccc2nc(NC(=O)Cc3ccccc3)c(-c3ccc(F)cc3)n2c1
4. CC(CC(=O)Nc1nc2ccc(F)cn2c1-c1ccc(OC(F)(F)F)cc1)C(F)(F)F (stereo not shown)
5. O=C(Cc1ccccc1)Nc1nc2ccc(F)cn2c1-c1ccc(OC(F)(F)F)cc1
6. O=C(Cc1ccc(F)c(F)c1)Nc1nc2ccc(F)cn2c1-c1ccc(OC(F)(F)F)cc1

5.52 to 6.30
5.00 to 5.52
> 6.30
> 6.30
> 6.30
> 6.30

Go through the items and report each one's pEC50.
1. CC(C)(C)CC(=O)Nc1nc2ccc(F)cn2c1-c1ccc(F)cc1F
2. CC1(CC(=O)Nc2nc3ccc(F)cn3c2-c2ccc(F)cc2)CCCC1
3. O=C(CCC1CC1)Nc1nc2ccc(F)cn2c1-c1cccc(C(F)(F)F)c1
4. COc1ccn2c(-c3ccc(C(F)(F)F)cc3)c(NC(=O)CC(F)(F)F)nc2c1

5.52 to 6.30
> 6.30
5.52 to 6.30
5.00 to 5.52

// batch mode: one pEC50 value per listed entry
1. O=C(Nc1nc2ccc(F)cn2c1-c1cccc(OC(F)(F)F)c1)C1CCC(F)(F)CC1
2. CC(CC(=O)Nc1nc2ccc(F)cn2c1-c1cc(F)cc(F)c1)C(F)(F)F (stereo not shown)
3. O=C(Cc1ccc(F)cc1)Nc1nc2ccccn2c1-c1ccc(OC(F)(F)F)cc1
4. O=C(Nc1nc2ccc(F)cn2c1-c1cccc(C(F)(F)F)c1)C1CCC(F)(F)CC1
5. O=C(Cc1ccccc1)Nc1nc2ccc(F)cn2c1-c1ccc(OC(F)(F)F)c(F)c1

["> 6.30", "5.52 to 6.30", "> 6.30", "> 6.30", "> 6.30"]
